Just for reference, ChEMBL document CHEMBL4304823 is where these values come from.

Test system: HeLa
PROCEDURE_SUMMARY: Antitumour activity against human HeLa cells assessed as reduction in cell viability by MTT assay
Type: functional, cell-based
EXPERIMENTAL_READOUT: IC50 (µg/mL)

{"SMILES_REPR": "CC[C@H](C)[C@@H]1NC(=O)CN2C(=O)c3ccccc3[C@]2(O)CN(Cc2ccccc2)C(=O)[C@@H]2CCCN2C(=O)[C@H](C(C)C)NC(=O)[C@@H]2CCCN2C(=O)[C@H](CC(C)C)NC1=O", "EXPERIMENTAL_READOUT": "IC50", "OBSERVED": 89}

a = CCNC(=O)CC[C@@H]1NC(=O)CN2C(=O)c3ccccc3[C@@]2(O)CN(Cc2ccccc2)C(=O)[C@H]2CCCN2C(=O)[C@H](C(C)C)NC(=O)[C@H]2CCCN2C(=O)[C@H](CC(C)C)NC(=O)[C@H]([C@@H](C)CC)NC1=O
b = CC[C@H](C)[C@@H]1NC(=O)CN2C(=O)c3ccccc3[C@@]2(O)CN(Cc2ccccc2)C(=O)[C@@H]2CCCN2C(=O)[C@H](C(C)C)NC(=O)[C@@H]2CCCN2C(=O)[C@H](CC(C)C)NC1=O
Input line: Which value of IC50 is greater, the one for a or the one for b ? // caller expects the label of the chosen entry
Output line: a
